TARGET_OR_TEST_SYSTEM: Prostaglandin G/H synthase 1 (Rattus norvegicus, UniProt Q63921); further: assay procedure not described here
Sequence (Q63921 whole entry): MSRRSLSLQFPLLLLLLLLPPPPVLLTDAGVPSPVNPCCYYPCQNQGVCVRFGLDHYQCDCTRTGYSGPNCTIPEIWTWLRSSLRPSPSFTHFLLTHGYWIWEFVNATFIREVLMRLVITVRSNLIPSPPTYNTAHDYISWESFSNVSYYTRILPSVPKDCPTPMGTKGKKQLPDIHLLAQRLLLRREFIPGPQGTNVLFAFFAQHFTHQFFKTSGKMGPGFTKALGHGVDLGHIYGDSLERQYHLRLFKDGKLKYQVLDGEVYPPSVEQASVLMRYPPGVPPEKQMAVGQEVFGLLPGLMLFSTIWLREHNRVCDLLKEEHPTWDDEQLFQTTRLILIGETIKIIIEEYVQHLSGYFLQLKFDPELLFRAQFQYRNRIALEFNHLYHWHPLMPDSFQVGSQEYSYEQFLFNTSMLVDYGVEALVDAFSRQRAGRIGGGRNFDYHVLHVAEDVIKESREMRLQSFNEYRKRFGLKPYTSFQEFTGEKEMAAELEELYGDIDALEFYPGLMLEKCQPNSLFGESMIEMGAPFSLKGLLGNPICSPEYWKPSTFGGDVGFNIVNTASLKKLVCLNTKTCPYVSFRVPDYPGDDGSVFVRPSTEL
Format: functional
Below: a set of entries, each annotated with reported AC50.
PARAMETER_MEASURED: AC50

{"COMPOUND": "COc1ccc(CCNCC(O)COc2cccc(C)c2)cc1OC (stereo unspecified)", "TARGET_OR_TEST_SYSTEM": "Prostaglandin G/H synthase 1 (Rattus norvegicus, UniProt Q63921)", "RESULT": "> 10 µM"}
{"COMPOUND": "Nc1ccn([C@H]2CC[C@@H](CO)O2)c(=O)n1", "TARGET_OR_TEST_SYSTEM": "Prostaglandin G/H synthase 1 (Rattus norvegicus, UniProt Q63921)", "RESULT": "> 10 µM"}
{"COMPOUND": "CC=CC(=O)N(CC)c1ccccc1C", "TARGET_OR_TEST_SYSTEM": "Prostaglandin G/H synthase 1 (Rattus norvegicus, UniProt Q63921)", "RESULT": "> 10 µM"}
{"COMPOUND": "CCCCCNC(=N)N/N=C/c1c[nH]c2ccc(OC)cc12", "TARGET_OR_TEST_SYSTEM": "Prostaglandin G/H synthase 1 (Rattus norvegicus, UniProt Q63921)", "RESULT": "25 µM"}
{"COMPOUND": "O=C(O)CCCCCCNC1c2ccccc2CCc2ccccc21", "TARGET_OR_TEST_SYSTEM": "Prostaglandin G/H synthase 1 (Rattus norvegicus, UniProt Q63921)", "RESULT": "> 30 µM"}
{"COMPOUND": "COC(=O)C1=C(C)NC(C)=C(C(=O)OC(C)(C)CN(C)CCC(c2ccccc2)c2ccccc2)C1c1cccc([N+](=O)[O-])c1 (stereo unspecified)", "TARGET_OR_TEST_SYSTEM": "Prostaglandin G/H synthase 1 (Rattus norvegicus, UniProt Q63921)", "RESULT": "18.7 µM"}
{"COMPOUND": "CC(=O)NCCCS(=O)(=O)O [ACAMPROSATE]", "TARGET_OR_TEST_SYSTEM": "Prostaglandin G/H synthase 1 (Rattus norvegicus, UniProt Q63921)", "RESULT": "> 30 µM"}
{"COMPOUND": "Clc1ccc(CCCOCCCN2CCCCC2)cc1", "TARGET_OR_TEST_SYSTEM": "Prostaglandin G/H synthase 1 (Rattus norvegicus, UniProt Q63921)", "RESULT": "> 30 µM"}
{"COMPOUND": "CCC1(CC)C(=O)NCC(C)C1=O (stereo unspecified)", "TARGET_OR_TEST_SYSTEM": "Prostaglandin G/H synthase 1 (Rattus norvegicus, UniProt Q63921)", "RESULT": "> 30 µM"}
{"COMPOUND": "C#C[C@]1(O)CC[C@H]2[C@@H]3CCc4cc(OC5CCCC5)ccc4[C@H]3CC[C@@]21C", "TARGET_OR_TEST_SYSTEM": "Prostaglandin G/H synthase 1 (Rattus norvegicus, UniProt Q63921)", "RESULT": "> 10 µM"}
{"COMPOUND": "C[C@@H](O)[C@H]1C(=O)N2C(C(=O)O)=C(S[C@@H]3CN[C@H](C(=O)N(C)C)C3)[C@H](C)[C@H]12", "TARGET_OR_TEST_SYSTEM": "Prostaglandin G/H synthase 1 (Rattus norvegicus, UniProt Q63921)", "RESULT": "33.4 µM"}
{"COMPOUND": "C=CCN1C[C@H](C(=O)N(CCCN(C)C)C(=O)NCC)C[C@@H]2c3cccc4[nH]cc(c34)C[C@H]21", "TARGET_OR_TEST_SYSTEM": "Prostaglandin G/H synthase 1 (Rattus norvegicus, UniProt Q63921)", "RESULT": "> 10 µM"}
{"COMPOUND": "CC(C)C[C@H]1C(=O)N2CCC[C@H]2[C@]2(O)O[C@](NC(=O)[C@@H]3C=C4c5cccc6[nH]c(Br)c(c56)C[C@H]4N(C)C3)(C(C)C)C(=O)N12", "TARGET_OR_TEST_SYSTEM": "Prostaglandin G/H synthase 1 (Rattus norvegicus, UniProt Q63921)", "RESULT": "> 30 µM"}
{"COMPOUND": "COC(=O)C1=C(C)NC(C)=C(C(=O)OC2CCCN(Cc3ccccc3)C2)C1c1cccc([N+](=O)[O-])c1 (stereo unspecified)", "TARGET_OR_TEST_SYSTEM": "Prostaglandin G/H synthase 1 (Rattus norvegicus, UniProt Q63921)", "RESULT": "> 30 µM"}
{"COMPOUND": "CN(C)CC/C=C1\\c2ccccc2CSc2ccccc21 [DOTHIEPIN]", "TARGET_OR_TEST_SYSTEM": "Prostaglandin G/H synthase 1 (Rattus norvegicus, UniProt Q63921)", "RESULT": "> 30 µM"}
{"COMPOUND": "O=C(O)CCCCCCCC(=O)O", "TARGET_OR_TEST_SYSTEM": "Prostaglandin G/H synthase 1 (Rattus norvegicus, UniProt Q63921)", "RESULT": "> 10 µM"}
